# Tested on: SK-MEL-28 melanoma
# Test details: NCI tumour cell line growth inhibition, 48 h
Listed next: entries and their corresponding TGI.
Quantity kind: TGI (µM)

* C=C[C@]1(C)CC(O)C2C(=C)C(=O)OC2[C@H]1C(=C)C=O (stereo partly specified) | 4.37
* O=C(c1ccccc1)N(C(=S)NCCc1ccc(Cl)cc1)c1ccc(Cl)cc1 | 27
* Cc1ccc(/C(O)=C/c2nc3ccccc3[nH]c2=O)cc1 | 23.2

###

# System: SNB-19 CNS
# Test details: NCI tumour cell line growth inhibition, 48 h
Quantity kind: GI50

- O=C(c1ccccc1)N(C(=S)NCCc1ccc(Cl)cc1)c1ccc(Cl)cc1: 15900 nM
- CCOC(=O)C(=Cc1ccc(-c2ccccc2)cc1)C(=O)OCC: 2210 nM
- COc1ccc2c(c1)c(-c1nonc1-c1cn(C)c3ccccc13)cn2C: 556 nM
- c1ccc(-c2n(Cc3ccc4ccccc4n3)cc[n+]2Cc2ccc3ccccc3n2)cc1: 2180 nM
- Cc1cc2nc(CS)[nH]c2cc1C: 27600 nM

###

# Test system: KM12 colon
# Test details: NCI tumour cell line growth inhibition, 48 h
Recorded TGI, one value per entry.
Quantity kind: TGI

- CN(c1nc(=[N+](C)C)ss1)C1CCCCC1: > 100 µM
- CC[C@H](C)[C@H](NC(=O)C12CC(NC)(C1)C2)C(=O)N(C)[C@H](C[C@@H](OC(C)=O)c1nc(C(=O)N[C@@H](Cc2ccccc2)C[C@H](C)C(=O)OC)cs1)C(C)C: > 17.6 µM
- OC1CC1Sc1ccccc1 (configuration not stated): > 100 µM
- CC1=C(C(=O)OCCc2ccc([N+](=O)[O-])cc2)C(c2cccc([N+](=O)[O-])c2)C(C(=O)OC(C)C)=C(C)N1 (configuration not stated): > 100 µM
- N[C@@H]1CCCC[C@@H]1N.O=P([O-])([O-])CNCP(=O)([O-])[O-].[Pt+2]: > 100 µM
- COc1cccc(CNCCN2C(=O)c3ccc4c5c(ccc(c35)C2=O)C(=O)N(CCNCc2cccc(OC)c2)C4=O)c1: 3.93 µM
- COc1ccc(CN(Cc2ccc(OC)cc2)C(=O)CC2(O)CCc3ccccc3C2)cc1 (configuration not stated): > 100 µM
- CCc1nc(N)c2nc(-c3ccc(C#N)cc3)oc2n1: > 100 µM
- O=C(NCCCCN(CCCNC(=O)C(F)(F)F)Cc1ccccc1)C(F)(F)F: > 100 µM
- COc1ccc2c(N=[N+]=[N-])c(-c3ccccc3)c(=O)oc2c1: > 100 µM
- CN1CCN(CCOc2ccc(-c3cnc4c(-c5cccc(F)c5F)cnn4c3)cc2)CC1: 3.39 µM
- CC(C)OC(=O)c1cc(NC(=O)C(C)(C)C)c(F)cc1Cl: > 100 µM
- O=C1Nc2ccccc2/C1=C/C(=N/c1nnc(-c2ccc(Cl)cc2)s1)c1ccccc1: 15.6 µM
- c1ccc2[nH]c(C3CCCCO3)nc2c1 (configuration not stated): > 100 µM
- NC(N)=NNC(=O)CCn1[nH]c(=O)c(Cl)c(Cl)c1=O: > 100 µM
- O=C1C2=Cc3ccccc3OC2(O)Oc2cc(O)cc(O)c21 (configuration not stated): > 100 µM
- CN(C)c1ccc2nc3ccc(=[N+](C)C)c([N+](=O)[O-])c-3sc2c1: 16.4 µM
- C[n+]1c2ccccc2c2/c(=C\C#N)c3ccccc3n21: 31.7 µM
- CCCCCCCCCCCCCCCC(=O)Nc1ccn(C2OC(CO)C(O)C2O)c(=O)n1 (configuration not stated): > 100 µM
- Cn1ccnc1C(=O)/C=C/c1ccc(C(=O)Nc2ccc(F)cc2)cc1: 2 µM
- CCCCCOc1ccc(Nc2c(O)c3c(c(O)c2Cl)C(=O)C=CC3=O)cc1: > 10 µM
- N#C/C(=C/c1cccc2ccccc12)C(=O)c1ccccc1: 43.2 µM
- O=c1cc(NNc2ccc(F)cc2)[nH]c(=O)[nH]1: 24 µM
- CC1=C(C)C2(C#N)C(=O)N3C(=NC(c4ccccc4)NC3c3ccccc3)C2(C#N)C(c2ccccc2)N1 (configuration not stated): > 100 µM
- Cc1ccc(/C(O)=C/c2nc3ccccc3[nH]c2=O)cc1: > 100 µM
- C=CCN(c1cc(OCc2ccccc2)c2c(c(C)cn2S(=O)(=O)c2ccc([N+](=O)[O-])cc2)c1[N+](=O)[O-])S(C)(=O)=O: > 100 µM
- Nc1ncnc2c1ncn2C1OC(CSC(F)F)C(O)C1O (configuration not stated): > 100 µM
